# assay_notes: Bioavailability in Cynomolgus Monkeys: plasma pharmacokinetics of Compound A after i.v./p.o. dosing
# assay_context: female, cynomolgus monkey, in vivo, po, 10 mg/kg
# Protocol: The following in vivo data, in rats, dogs and monkeys, exemplify the surprising improvement in bioavailability of the diester prodrugs of the present invention over the diacid of 3S,4aR,6S, 8aR-6-(((4-carboxy)phenyl)methyl)1,2,3,4,4a,5,6,7,8,8a-decahydroisoquinoline-3-carboxylic acid. Percent bioavailability is determined using the following equation: [formula] wherein AUC represents the area under the curve, p.o. represents oral dose, and i.v. represents intravenous dose. […]
experimental_endpoint: concentration at 8 h

INSERT INTO results (smiles_record, observed) VALUES
  ('O=C(O)c1ccc(C[C@H]2CC[C@H]3CN[C@H](C(=O)O)C[C@H]3C2)cc1', '> 10 ng/mL');

* * *

# assay_notes: Bioavailability in Cynomolgus Monkeys: plasma pharmacokinetics of Compound A after i.v./p.o. dosing
# assay_context: female, cynomolgus monkey, in vivo, iv, 1 mg/kg
experimental_endpoint: half-life (min)

INSERT INTO assay_data (smiles_record, observed) VALUES
  ('O=C(O)c1ccc(C[C@H]2CC[C@H]3CN[C@H](C(=O)O)C[C@H]3C2)cc1', 42);

* * *

# assay_notes: Bioavailability in Cynomolgus Monkeys: plasma pharmacokinetics of Compound A after i.v./p.o. dosing
# assay_context: female, cynomolgus monkey, in vivo, iv, 1 mg/kg
experimental_endpoint: Cmax (ng/mL)

INSERT INTO measurements (compound, units, observed) VALUES
  ('O=C(O)c1ccc(C[C@H]2CC[C@H]3CN[C@H](C(=O)O)C[C@H]3C2)cc1 [Compound A]', 'ng/mL', 1920);

* * *

# assay_notes: Bioavailability in Dogs: plasma pharmacokinetics of Compound A after i.v./p.o. dosing
# Type: in vivo
# assay_context: both sexes, dog, iv, Beagle dogs, 10 mg/kg
experimental_endpoint: Cmax (µg/mL)

INSERT INTO assay_data (smiles_record, units, observed) VALUES
  ('O=C(O)c1ccc(C[C@H]2CC[C@H]3CN[C@H](C(=O)O)C[C@H]3C2)cc1', 'µg/mL', 28.8);

* * *

# assay_notes: Pharmacokinetic parameters of Compound A in Fischer Rats after a 10 mg/kg dose
# Format: in vivo
# assay_context: rat, iv, plasma Compound A
experimental_endpoint: AUC (ng·h/mL)

INSERT INTO measurements (compound, units, observed) VALUES
  ('O=C(O)c1ccc(C[C@H]2CC[C@H]3CN[C@H](C(=O)O)C[C@H]3C2)cc1 [Compound A]', 'ng·h/mL', 2410);

* * *

# assay_notes: Pharmacokinetic parameters of Compound A in Fischer Rats after a 10 mg/kg dose
# Type: in vivo
# assay_context: rat, iv, plasma Compound A
experimental_endpoint: Cmax (ng/mL)

INSERT INTO assay_data (compound, observed) VALUES
  ('O=C(O)c1ccc(C[C@H]2CC[C@H]3CN[C@H](C(=O)O)C[C@H]3C2)cc1 [Compound A]', 6280);
